Data provenance is patent US8129527B2.

system: HT-29 human colorectal carcinoma cells; test: Cytotoxic effect against HT-29 cells (Table 30); format: cell-based; details: HT-29, read-out: EC50 (M) Mean
A collection of molecules and their measured EC50
reported metric: EC50 (M)

>>> data_value("CC(C)(C)c1ocnc1/C=c1\\[nH]c(=O)/c(=C/c2cccc(C(=O)c3ccc(CN)cc3)c2)[nH]c1=O [Compound 2534]")
"5.3e-07"
>>> data_value("CC(C)(C)c1[nH]cnc1/C=c1\\[nH]c(=O)/c(=C/c2cccc(OP(=O)(O)O)c2)[nH]c1=O [Compound 2521]")
"2.8e-07"
>>> data_value("CC(C)(C)c1[nH]cnc1/C=c1\\[nH]c(=O)/c(=C/c2cccc(C(N)=O)c2)[nH]c1=O [Compound 2529]")
"5e-06"
>>> data_value("COC(=O)c1cccc(/C=c2\\[nH]c(=O)/c(=C/c3nc[nH]c3C(C)(C)C)[nH]c2=O)c1 [Compound 2527]")
"1.9e-07"
